Target: HLA B*1503 (Homo sapiens, UniProt P01889, A329T/A93T/A95T/C349S/D201E/D98Y/E187L/E204Q/K202T/N87E/Q94N/R155S/R180L/S121R/S35A/V306I/V36M/Y140S/Y91S)
Assay: biochemical
Where a SMILES comes first, the peptide text is derived from it.
Define the label as 1 when IC50 is strictly less than 1 nM and as -1 in all remaining cases.

Below, 10 molecules whose answers are already recorded.
- CC[C@H](C)[C@H](NC(=O)[C@H](CO)NC(=O)[C@@H]1CCCN1C(=O)[C@H](CC(C)C)NC(=O)[C@@H](NC(=O)[C@H](CCSC)NC(=O)[C@H](CCSC)NC(=O)[C@@H](N)CC(C)C)[C@@H](C)O)C(=O)N[C@@H](Cc1ccccc1)C(=O)O [3102.1317] (H-LMMTLPSIF-OH): 1
- CC[C@H](C)[C@H](N)C(=O)N[C@@H](CCCCN)C(=O)N[C@@H](CCC(=O)O)C(=O)N[C@@H](CC(N)=O)C(=O)N[C@@H](CO)C(=O)N[C@H](C(=O)N[C@@H](Cc1ccc(O)cc1)C(=O)N[C@@H](CO)C(=O)N[C@@H](Cc1ccccc1)C(=O)O)[C@@H](C)CC [3102.1146] (H-IKENSIYSF-OH): -1
- CC[C@H](C)[C@H](NC(=O)[C@H](CCSC)NC(=O)[C@H](CC(=O)O)NC(=O)[C@H](CC(N)=O)NC(=O)[C@@H](NC(=O)[C@H](CCSC)NC(=O)[C@H](CCC(N)=O)NC(=O)[C@@H](N)CCCNC(=N)N)C(C)C)C(=O)N[C@@H](Cc1ccccc1)C(=O)O [3102.1102] (H-RQMVNDMIF-OH): -1
- CC[C@H](C)[C@H](NC(=O)[C@H](Cc1c[nH]cn1)NC(=O)[C@H](CC(N)=O)NC(=O)[C@H](CCCCN)NC(=O)[C@@H](N)CCCNC(=N)N)C(=O)N[C@@H](Cc1ccc(O)cc1)C(=O)N[C@@H](CC(N)=O)C(=O)N[C@@H](CO)C(=O)N[C@@H](Cc1ccccc1)C(=O)O [3102.1203] (H-RKNHIYNSF-OH): 1
- CC[C@H](C)[C@H](NC(=O)[C@H](Cc1c[nH]cn1)NC(=O)[C@H](CCCCN)NC(=O)[C@H](CC(N)=O)NC(=O)[C@H](CCSC)NC(=O)[C@@H](N)Cc1ccccc1)C(=O)N[C@@H](CC(C)C)C(=O)N[C@@H](CO)C(=O)N[C@@H](Cc1ccc(O)cc1)C(=O)O [3102.1258] (H-FMNKHILSY-OH): 1
- CC[C@H](C)[C@H](NC(=O)[C@H](CCCCN)NC(=O)[C@H](Cc1ccc(O)cc1)NC(=O)[C@H](Cc1ccccc1)NC(=O)[C@H](CCSC)NC(=O)[C@H](Cc1ccc(O)cc1)NC(=O)[C@H](CCC(N)=O)NC(=O)[C@@H](N)CCCNC(=N)N)C(=O)N[C@@H](Cc1ccccc1)C(=O)O [3102.1055] (H-RQYMFYKIF-OH): 1
- CC[C@H](C)[C@H](NC(=O)[C@H](CCCCN)NC(=O)[C@@H](N)CCCNC(=N)N)C(=O)N[C@@H](CO)C(=O)N[C@@H](CO)C(=O)N[C@@H](CCCCN)C(=O)N[C@@H](CC(N)=O)C(=O)N[C@@H](CO)C(=O)N[C@@H](CCSC)C(=O)O [3102.1080] (H-RKISSKNSM-OH): 1
- CC(C)C[C@H](NC(=O)[C@@H](N)CC(N)=O)C(=O)N[C@@H](Cc1ccc(O)cc1)C(=O)N[C@@H](Cc1ccccc1)C(=O)N[C@@H](CS)C(=O)N[C@H](C(=O)N[C@@H](CCCCN)C(=O)N[C@@H](CO)C(=O)N[C@@H](Cc1ccccc1)C(=O)O)[C@@H](C)O [3102.1057] (H-NLYFCTKSF-OH): -1
- CC(C)[C@H](NC(=O)[C@@H](NC(=O)[C@H](C)NC(=O)[C@H](Cc1ccc(O)cc1)NC(=O)[C@@H](NC(=O)[C@H](C)NC(=O)[C@@H](N)CO)[C@@H](C)O)[C@@H](C)O)C(=O)N1CCC[C@H]1C(=O)N[C@@H](Cc1ccccc1)C(=O)O [3102.1306] (H-SATYATVPF-OH): -1
- CSCC[C@H](NC(=O)[C@@H](N)CC(C)C)C(=O)N[C@H](C(=O)N[C@@H](CO)C(=O)NCC(=O)N1CCC[C@H]1C(=O)N[C@@H](CC(N)=O)C(=O)N[C@H](C(=O)N[C@H](C(=O)O)C(C)C)C(C)C)C(C)C [3102.1249] (H-LMVSGPNVV-OH): -1

Task item: Determine whether this molecule shows IC50 lower than 1 nM (ties excluded): CC(C)C[C@H](NC(=O)[C@@H](NC(=O)[C@H](CC(N)=O)NC(=O)[C@H](C)NC(=O)[C@H](CC(N)=O)NC(=O)[C@H](Cc1ccc(O)cc1)NC(=O)[C@H](Cc1ccccc1)NC(=O)[C@H](CCC(N)=O)NC(=O)[C@@H](N)CCCNC(=N)N)C(C)C)C(=O)O [3102.1205] (H-RQFYNANVL-OH)
Reply: 1

Task item: Please answer likewise for CC[C@H](C)[C@H](NC(=O)[C@H](Cc1c[nH]cn1)NC(=O)[C@@H](NC(=O)[C@H](Cc1ccc(O)cc1)NC(=O)[C@H](CCC(N)=O)NC(=O)[C@@H](N)CC(C)C)C(C)C)C(=O)N[C@@H](CC(N)=O)C(=O)N[C@@H](CCC(=O)O)C(=O)N[C@@H](CC(C)C)C(=O)O [3102.1187] (H-LQYVHINEL-OH)
Reply: -1

Task item: Record: CC[C@H](C)[C@H](NC(=O)[C@@H](NC(=O)[C@@H]1CCCN1C(=O)[C@H](CC(C)C)NC(=O)[C@H](Cc1ccccc1)NC(=O)[C@H](CO)NC(=O)[C@H](CCSC)NC(=O)[C@@H](N)CCCCN)[C@@H](C)CC)C(=O)N[C@@H](Cc1ccccc1)C(=O)O [3102.1291] (H-KMSFLPIIF-OH)
Reply: 1

All figures here come from paper PMC2248166.
